System: HCT-15 colon
assay protocol: NCI tumour cell line growth inhibition, 48 h
reported metric: TGI

[[record]]
compound = "OCCCSc1ccccc1SCCCO"
reported_metric = "TGI"
result = "> 100 µM"

[[record]]
compound = "CC(C)(C)NC(NC(C)(C)C)=C(C(Cl)=C(Cl)Cl)[N+](=O)[O-]"
reported_metric = "TGI"
result = "> 100 µM"

[[record]]
compound = "CN(C)c1ccc(/C=C/c2sc3ccc4ccccc4c3[n+]2C)cc1"
reported_metric = "TGI"
result = "> 31.5 µM"

[[record]]
compound = "COc1ncc(-c2nc3c(n2C(C)C)[C@H](c2ccc(Cl)cc2)N(c2cc(Cl)cn(C)c2=O)C3=O)c(OC)n1"
reported_metric = "TGI"
result = "> 100 µM"

[[record]]
compound = "N#C/C(=C/C=C(\\Cl)c1ccc(Cl)cc1)C(N)=O"
reported_metric = "TGI"
result = "> 32.5 µM"

[[record]]
compound = "Cc1ccc(S(=O)(=O)CNC(=S)CCCC(=S)NCS(=O)(=O)c2ccc(C)cc2)cc1"
reported_metric = "TGI"
result = "> 100 µM"

[[record]]
compound = "Cc1ccc(S(=O)(=O)Oc2ccc3c4c(c(=O)oc3c2)CCCCC4)cc1"
reported_metric = "TGI"
result = "> 100 µM"

[[record]]
compound = "O=C1CC2CCCCC2=C1O (centres undefined)"
reported_metric = "TGI"
result = "> 100 µM"

[[record]]
compound = "COC(=O)C1=NN2c3ccccc3C(=O)OCCC2C1 (centres undefined)"
reported_metric = "TGI"
result = "> 100 µM"

[[record]]
compound = "Cc1cc2c(c3oc(C(O)(CO)C4CO4)cc(=O)c13)C(=O)c1c(O)cccc1C2=O (centres undefined)"
reported_metric = "TGI"
result = "0.00152 µM"

[[record]]
compound = "CCN1/C(=C/c2ccc3ccccc3[n+]2CC)C=Cc2ccccc21"
reported_metric = "TGI"
result = "34.1 µM"

[[record]]
compound = "Cc1ccc(S(=O)(=O)N2CCC3(C(/C=C/c4ccccc4)=Nc4ccccc43)C2c2ccccc2)cc1 (centres undefined)"
reported_metric = "TGI"
result = "> 100 µM"

[[record]]
compound = "CC(SC(=S)N1CCCCC1)C(=O)Nc1nnc(-c2ccc(Cl)cc2)o1 (centres undefined)"
reported_metric = "TGI"
result = "> 100 µM"

[[record]]
compound = "O=C(CC/C(C/C(=N/O)c1ccc(F)cc1)=N/O)N(Cc1ccccc1)Cc1ccccc1"
reported_metric = "TGI"
result = "> 100 µM"

[[record]]
compound = "Cc1ccc(/C=C2\\NC(=S)N(CN3CCOCC3)C2=O)cc1"
reported_metric = "TGI"
result = "> 100 µM"

[[record]]
compound = "CCC(=O)OCc1ccc2oc(=O)c(C(=O)Oc3cncc(Cl)c3)cc2c1"
reported_metric = "TGI"
result = "> 100 µM"

[[record]]
compound = "COc1cc(/C=C/C(=O)c2cc(F)c(Cl)cc2Cl)cc(OC)c1OC"
reported_metric = "TGI"
result = "54.4 µM"

[[record]]
compound = "COC(=O)C1=C(C(=O)OC)C23C=CC=CC24C(C(=O)OC)=C(C(=O)OC)C4C1C3 (centres undefined)"
reported_metric = "TGI"
result = "> 100 µM"

[[record]]
compound = "CCCCCCCCCCCCCC/C(C(=O)OC)=C(/O)C(=O)OCC"
reported_metric = "TGI"
result = "36.3 µM"

